Value source: paper PMC11471635

Target: TRPA1(A) (TRPA1(A)-exon10a) (Drosophila melanogaster, UniProt Q7Z020)
Construct: full-length isoform with exon1a-encoded N-terminus and exon10a-encoded BAT domain; cRNA-injected Xenopus laevis oocytes
Sequence (Q7Z020 whole entry, change not shown, the tested form may be a part, canonical isoform): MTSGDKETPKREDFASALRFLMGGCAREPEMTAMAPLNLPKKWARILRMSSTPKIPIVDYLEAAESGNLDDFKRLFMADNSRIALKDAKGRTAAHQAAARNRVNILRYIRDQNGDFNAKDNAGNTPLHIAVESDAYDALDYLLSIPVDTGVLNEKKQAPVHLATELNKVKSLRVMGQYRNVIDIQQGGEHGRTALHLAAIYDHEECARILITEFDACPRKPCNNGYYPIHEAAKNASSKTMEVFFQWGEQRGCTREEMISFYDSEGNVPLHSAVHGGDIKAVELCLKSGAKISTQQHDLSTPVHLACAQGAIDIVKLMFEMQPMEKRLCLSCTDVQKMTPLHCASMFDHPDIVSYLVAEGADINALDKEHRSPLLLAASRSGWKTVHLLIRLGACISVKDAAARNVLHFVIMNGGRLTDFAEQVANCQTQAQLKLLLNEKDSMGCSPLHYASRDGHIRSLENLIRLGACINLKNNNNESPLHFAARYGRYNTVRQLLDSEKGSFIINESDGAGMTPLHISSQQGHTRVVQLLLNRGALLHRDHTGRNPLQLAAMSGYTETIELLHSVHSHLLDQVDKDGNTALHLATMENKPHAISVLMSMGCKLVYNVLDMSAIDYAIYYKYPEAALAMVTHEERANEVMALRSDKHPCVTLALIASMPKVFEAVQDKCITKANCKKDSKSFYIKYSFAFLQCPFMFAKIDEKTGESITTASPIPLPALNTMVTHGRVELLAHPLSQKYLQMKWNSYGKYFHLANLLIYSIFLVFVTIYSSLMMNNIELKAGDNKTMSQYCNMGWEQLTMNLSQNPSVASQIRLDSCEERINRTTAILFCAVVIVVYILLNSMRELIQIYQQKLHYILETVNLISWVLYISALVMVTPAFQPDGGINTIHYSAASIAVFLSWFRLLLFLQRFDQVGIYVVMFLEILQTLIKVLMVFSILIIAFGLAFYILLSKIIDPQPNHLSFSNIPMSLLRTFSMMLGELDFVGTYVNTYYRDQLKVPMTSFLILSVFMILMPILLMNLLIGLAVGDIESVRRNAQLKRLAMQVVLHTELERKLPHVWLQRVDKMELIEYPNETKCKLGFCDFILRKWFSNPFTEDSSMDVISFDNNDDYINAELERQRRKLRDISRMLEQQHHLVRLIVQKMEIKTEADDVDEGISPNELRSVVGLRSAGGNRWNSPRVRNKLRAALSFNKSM
Test: two-electrode voltage clamp, Xenopus oocytes
pEC50: −log10 of the molar value.
quantity: pEC50

CN1C(=O)C=CC1=O [N-methyl maleimide] = 4.87

---

Molecular target: agTRPA1(A) (Anopheles gambiae)
Construct: isoform with TRPA1(A)-type N-terminus and exon6a-encoded BAT; cRNA-injected Xenopus laevis oocytes
Sequence (A0A1S4GN50 1-1208): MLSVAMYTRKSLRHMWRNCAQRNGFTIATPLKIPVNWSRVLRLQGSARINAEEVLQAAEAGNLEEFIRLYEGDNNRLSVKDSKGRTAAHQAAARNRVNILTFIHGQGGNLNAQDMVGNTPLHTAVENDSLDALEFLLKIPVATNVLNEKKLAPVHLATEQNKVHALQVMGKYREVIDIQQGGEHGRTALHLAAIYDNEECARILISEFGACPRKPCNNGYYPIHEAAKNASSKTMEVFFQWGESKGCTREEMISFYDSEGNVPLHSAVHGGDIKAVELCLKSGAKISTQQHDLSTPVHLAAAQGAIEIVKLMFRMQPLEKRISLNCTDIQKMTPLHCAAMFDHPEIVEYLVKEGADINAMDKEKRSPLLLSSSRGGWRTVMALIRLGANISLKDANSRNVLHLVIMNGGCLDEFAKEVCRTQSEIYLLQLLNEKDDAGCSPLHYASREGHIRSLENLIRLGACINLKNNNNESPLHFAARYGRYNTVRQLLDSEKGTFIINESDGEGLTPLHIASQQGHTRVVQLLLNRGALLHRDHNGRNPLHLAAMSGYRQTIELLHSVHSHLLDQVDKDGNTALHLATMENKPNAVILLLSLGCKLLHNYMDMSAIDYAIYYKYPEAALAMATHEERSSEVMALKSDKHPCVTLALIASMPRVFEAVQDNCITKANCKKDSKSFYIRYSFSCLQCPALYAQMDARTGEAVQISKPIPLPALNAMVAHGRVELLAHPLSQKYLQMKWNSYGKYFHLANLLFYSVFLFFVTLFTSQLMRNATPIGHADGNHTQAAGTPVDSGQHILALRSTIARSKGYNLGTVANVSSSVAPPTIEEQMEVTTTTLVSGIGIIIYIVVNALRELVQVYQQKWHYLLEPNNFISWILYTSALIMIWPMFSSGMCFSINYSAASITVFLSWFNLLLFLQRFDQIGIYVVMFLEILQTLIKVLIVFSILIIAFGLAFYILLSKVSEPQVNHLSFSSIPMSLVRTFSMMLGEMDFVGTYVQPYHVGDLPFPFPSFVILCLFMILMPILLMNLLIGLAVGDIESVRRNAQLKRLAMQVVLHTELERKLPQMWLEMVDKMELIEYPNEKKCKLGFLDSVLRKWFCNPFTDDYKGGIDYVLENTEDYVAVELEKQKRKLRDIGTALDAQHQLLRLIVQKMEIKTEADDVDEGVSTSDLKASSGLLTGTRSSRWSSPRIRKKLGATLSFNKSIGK
Assay: two-electrode voltage clamp, Xenopus oocytes
quantity: EC50

CN1C(=O)C=CC1=O [N-methyl maleimide] = 43.8 µM
